molecular target: IMP-1 (Serratia marcescens, UniProt P52699); test: biochemical; design: species or system Pseudomonas aeruginosa
Sequence (P52699 19-246 limits assumed): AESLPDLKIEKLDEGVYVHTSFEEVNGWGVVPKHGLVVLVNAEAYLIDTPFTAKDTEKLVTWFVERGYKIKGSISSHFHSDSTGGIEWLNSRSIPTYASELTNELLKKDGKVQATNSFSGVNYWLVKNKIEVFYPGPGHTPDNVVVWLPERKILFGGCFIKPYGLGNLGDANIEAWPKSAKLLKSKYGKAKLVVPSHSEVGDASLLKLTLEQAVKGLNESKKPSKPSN
reported-endpoint: pIC50
Just so you know, pIC50 here is -log10 of the concentration in molar units; reply with that number alone.

- compound: "O=c1ccc(-c2ccccc2)cn1O [Compound 4, 1-hydroxy-5-phenylpyridin-2-one]"
  recorded-number: 4.92

Kindly note the recorded pIC50 for O=C(NCc1ccccc1)c1cccc(O)n1 [Compound 3, N-benzyl-6-hydroxypyridine-2-carboxamide] , which is 4.86

----------
biological target: Bla2 (Bacillus anthracis); test: biochemical; type: biochemical
Sequence (Q93T40 1-256): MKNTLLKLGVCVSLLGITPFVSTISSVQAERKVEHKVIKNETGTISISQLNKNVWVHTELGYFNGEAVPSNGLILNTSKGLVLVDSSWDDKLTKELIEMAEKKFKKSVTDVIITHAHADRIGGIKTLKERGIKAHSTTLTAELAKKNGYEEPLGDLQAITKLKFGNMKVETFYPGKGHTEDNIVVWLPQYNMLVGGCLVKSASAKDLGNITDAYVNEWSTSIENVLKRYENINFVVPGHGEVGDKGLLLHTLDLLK
reported-endpoint: pIC50
Just so you know, pIC50 here is -log10 of the concentration in molar units; reply with that number alone.

Simply: C[C@H](CS)C(=O)N1CCC[C@H]1C(=O)O , Bla2 (Bacillus anthracis), pIC50 = 4.60

----------
molecular target: UniProtKB P52699; test: biochemical; design: species or system Pseudomonas aeruginosa; details: read-out: IMP-1 IC50
reported-endpoint: pIC50
Just so you know, pIC50 here is -log10 of the concentration in molar units; reply with that number alone.

- molecule: "CC1(C)SC(c2ccc(Br)cc2)=N[C@H]1C(=O)O"
  reported-endpoint: "pIC50"
  recorded-number: 3.82
- molecule: "CC(=O)Nc1cccc(C2=N[C@@H](C(=O)O)C(C)(C)S2)c1"
  reported-endpoint: "pIC50"
  recorded-number: 4.22
- molecule: "Nc1cccc(C2=NC(C(=O)O)CS2)c1 (stereo not shown)"
  reported-endpoint: "pIC50"
  recorded-number: 4.00

Kindly note the recorded pIC50 for O=C(O)C1CS[C@H](c2ccccc2O)N1 (stereo partly shown) , which is 4.53
